- Assay comment: differential killing of epithelial or mesenchymal cells, primary screen, imaging, PC-3E GFP, TEM4-18 mCherry, co-culture (AID 1345086);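 further: normalised mesenchymal count divided by normalised epithelial count so high means epithelial killing; cells exposed to compound for 72 h before imaging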
- Test settings: imaging cell counts, at 1 µM, actives lie on both sides, counts scaled to control wells, 1 = unselective
Active and inactive are the calls of the source.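 How the source made its calls: active means compounds killing one labelled cell type while sparing the other, by normalised counts and ratio limits, not self-fluorescent; inactive means the rest.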 Numbered stars: 1 amine (or outer) side, 2 acyl side, 3 side chain; on linkers, the order of the positions; unused ones are H or OH. Bridge positions count the residues as written; N and C are the ends. Square brackets hold non-standard residues; d marks the D form. Peptide text beside a SMILES is read from it. I, II: the chains in the order shown. Actinocin(9to1) = Cc1c2oc3c(C)ccc(C(=O)[*:1])c3nc-2c(C(=O)[*:2])c(N)c1=O; NMeV = CN[CH](C(=O)O)C(C)C; Sar = CNCC(=O)O
Permitted responses: active, inactive

Q: // return assay outcome for Cc1c2oc3c(C)ccc(C(=O)OC(C)C4NC(=O)C(C(C)C)N(C)C(=O)CN(C)C(=O)C5CCCN5C(=O)C(C(C)C)NC4=O)c3nc-2c(C(=O)OC(C)C2NC(=O)C(C(C)C)N(C)C(=O)CN(C)C(=O)C3CCCN3C(=O)C(C(C)C)NC2=O)c(N)c1=O (stereo unspecified) (I: cyclo([Sar][NMeV]TVP) / II: cyclo([Sar][NMeV]TVP); linker I:3-II:3 via Actinocin(9to1); configuration not given here)
A: active

Q: Quick one: `OCc1ccccc1`
A: inactive

Q: Quick one: `COc1cccc2c1C(=O)OCc1cc(C)cc(O)c1O2`
A: inactive

Q: Quick one: `CCCCC/C=C/C1=C(CO)[C@H](O)[C@H]2O[C@H]2[C@@H]1O`
A: inactive

Q: Quick one: `Cc1c(S(=O)(=O)O)oc2c1C(=O)C(=O)c1c-2ccc2c1CCCC2(C)C`
A: inactive

More entries:
Q: // return assay outcome for `OC[C@@H](O)[C@H](O)[C@@H](O)[C@H](O)CO`
A: inactive

Q: Quick one: `CN1CC(=O)N2[C@H](c3ccc4c(c3)OCO4)c3[nH]c4ccccc4c3C[C@@H]2C1=O`
A: inactive

Q: Quick one: NC(Cc1ccc(F)cc1)C(=O)O (stereo unspecified)
A: inactive

Q: Quick one: `CCCCCCCCC[C@H]1O[C@]2(O)CC[C@H](O)[C@]2(O)[C@@H]1O`
A: inactive

Q: Quick one: CC1COc2c(N)c(F)cc3c(=O)c(C(=O)O)cn1c23 (stereo unspecified)
A: inactive

Q: Quick one: `COc1cc(/C=C/C(=O)/C=C(O)/C=C/c2ccc(O)c(OC)c2)ccc1O`
A: inactive
